Target: pooled human IgG (human); also: test concentration or dose not given here
Assay: cell-based or functional assay
Recorded Enzyme Activity Endpoint Assay (purified): IgG by entry
# unit: ng/µL | format: bare number

BINDER	NUMERIC VALUE
PRT-220 (enzyme) MEVVEVWPYGQNPNGKTEILSQTEDSESLQRLRDIEDFQAEKKKQGVVYTKWLDGVNVDDHEFRKITDGNTEYYATPLLNGRGYYDINKDFNRDSDKCAAAVAANMFHYWLDRNRDNVDRFLRQNPDKHGIIELPDGQLKLSDFLNTYESDHDYRDKSKLFDFISNNFNGPVWTNKLLDNYINGYGYNYKYGRTIEDPTKNTSKINFFKEVFNGKLLTDNHSIRNKNEFSSKLSEALYTGKAIGLSYGPAGLRHSLGHIISVWGADLDEDGNVVAIYVTDSDDKKLTIGDERVGLKRYKVSYDDEGRARLTAYEETDNTGGEIRGLWTLDTGKQYWADYFDKTEQTGTDQAEQLEHHHHHH	2320

Fill blank: measured Enzyme Activity Endpoint Assay (purified): IgG of the binder PRT-223 (enzyme) MEVVEVWPYGQNPNGKTEILSQTEDSESLQRLRDIEDFQAEKKKENVVYTKWLDGVDVKDHDFRKIVDGNIAYYATPLLNGRGFYDINKDFNRDSDKCAAAVAANMFHYWLDINRDNVDRFLRQNPEKHGIIELPDGQLKLSDFLNTYESDHGYRDKSKLFDFISNNFNGPVWTDKLLDNYINGYAYNYKYGRTIEDPTKNTSKINFFKEVFNEKILTNNHSIRNQNEFSDLLSEALYTGKAIGLSYGPAGLRHSLGHIISVWGADLDADGNVVAIYVTDSDDKKLTIGDERVGLKRYKISTDDENRLRLTAYEETHNTGGQIRGLWTLDTGKQAWADYFDKTEQTGTDQAEQLEHHHHHH is ____. 375
